Measurement target: Aminopeptidase N (Plasmodium falciparum FcB1/Columbia, UniProt O96935)
Sequence (O96935 whole entry): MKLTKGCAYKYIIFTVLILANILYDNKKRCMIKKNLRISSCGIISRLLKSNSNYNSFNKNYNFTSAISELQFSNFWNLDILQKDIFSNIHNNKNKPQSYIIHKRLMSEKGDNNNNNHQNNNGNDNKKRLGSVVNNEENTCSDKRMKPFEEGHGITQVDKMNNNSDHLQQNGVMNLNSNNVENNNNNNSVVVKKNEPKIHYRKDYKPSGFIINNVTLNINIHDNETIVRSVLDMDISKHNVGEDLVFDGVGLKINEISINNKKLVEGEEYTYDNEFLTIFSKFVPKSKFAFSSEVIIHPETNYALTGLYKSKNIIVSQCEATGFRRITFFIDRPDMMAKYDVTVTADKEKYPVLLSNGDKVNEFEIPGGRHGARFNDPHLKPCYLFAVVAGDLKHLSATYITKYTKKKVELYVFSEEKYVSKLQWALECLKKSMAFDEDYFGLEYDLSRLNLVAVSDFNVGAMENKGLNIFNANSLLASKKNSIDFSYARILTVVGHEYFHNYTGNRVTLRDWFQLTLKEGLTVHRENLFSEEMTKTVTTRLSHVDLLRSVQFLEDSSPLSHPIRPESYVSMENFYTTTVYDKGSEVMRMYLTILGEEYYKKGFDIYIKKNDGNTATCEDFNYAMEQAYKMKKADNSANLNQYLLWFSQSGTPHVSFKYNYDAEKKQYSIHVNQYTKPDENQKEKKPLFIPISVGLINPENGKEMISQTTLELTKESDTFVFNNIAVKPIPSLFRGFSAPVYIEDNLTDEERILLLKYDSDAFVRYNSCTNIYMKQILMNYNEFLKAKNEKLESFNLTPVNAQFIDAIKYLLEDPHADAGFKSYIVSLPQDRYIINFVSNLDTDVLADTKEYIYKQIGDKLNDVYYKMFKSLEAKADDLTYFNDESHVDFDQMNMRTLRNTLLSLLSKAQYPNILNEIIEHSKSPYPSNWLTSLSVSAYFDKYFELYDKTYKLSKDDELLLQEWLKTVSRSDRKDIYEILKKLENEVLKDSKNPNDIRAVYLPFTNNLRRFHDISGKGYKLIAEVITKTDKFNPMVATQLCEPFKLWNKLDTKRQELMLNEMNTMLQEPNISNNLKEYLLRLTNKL
Test method notes: malaria alanyl aminopeptidase activity blockers – biochemical, fluorogenic H-Leu-NHMec substrate, 1536-well (AID 1445)
Parameters: species or system Plasmodium falciparum 3D7, 3D7
The source made the active and inactive calls. How the calls were made is not given here.
Observed property: IC50

Recorded results for 3 molecules are shown here.
Item smiles: CN1CCN(Cc2c(O)ccc3cc(-c4ccccn4)c(=O)oc23)CC1
IC50: 52.2 µM (active)
//
Item smiles: O=C(Nc1cccc(NC(=O)c2cccs2)c1)c1ccc([N+](=O)[O-])o1
IC50: 49.8 µM (active)
//
Item smiles: O=C1/C(=C/c2cccs2)SC(=S)N1NS(=O)(=O)c1ccccc1
IC50: 16.6 µM (active)

Short answer please: IC50, Aminopeptidase N (Plasmodium falciparum FcB1/Columbia, UniProt O96935), entry Cc1ccc(N2C(=O)/C(=C\Nc3ccccc3-c3nnc(S)nc3O)c3ccccc3C2=O)cc1C 39.2 µM (active)
